Cited source: PubChem BioAssay (NCI)

// reported log10 of TGI for each item listed
System: SR leukemia
experiment_notes: NCI tumour cell line growth inhibition, 48 h
Base-10 log of TGI, unit µM.

compound=Cn1c2ccccc2c2ccc3c(c21)C(=O)c1ccccc1C3=O measured_result=1.14
compound=COc1ccc(C(=O)C#Cc2cnc(OC)nc2OC)cc1 measured_result=4.63
compound=C=C(C[C@](O)(C(=O)/C=C/c1ccc(Cl)cc1)C(=O)OC)c1ccccc1 measured_result=0.89
compound=O=C1C(Cl)=C(NCCN2CCOCC2)C(=O)c2ncccc21 measured_result=0.75

// CS(=O)(=O)c1ccc(-n2nc(C(F)(F)F)cc2OC2CCCC2)cc1 : log10 of TGI value = 1.68

// CCOC(=S)SSSC(=S)OCC : log10 of TGI value = 1.62

// Nc1nc(N(Cc2ccccc2)c2ccccc2)c2cn[nH]c2n1 : log10 of TGI value = 0.75

// Cc1ccc([N+](=O)[O-])cc1S(=O)(=O)Nc1ccc(C2=NN(c3ccc([N+](=O)[O-])cc3[N+](=O)[O-])C(c3cccs3)C2)cc1 (centres undefined) : log10 of TGI value = 1.77

// CC1CN1C(=O)NCCCCCCNC(=O)N1CC1C (centres undefined) : log10 of TGI value = 1.78

// COc1ccc(N2C(=O)/C(=C/c3ccc(N(CCC#N)CCC#N)cc3C)N=C2c2cc([N+](=O)[O-])ccc2Cl)cc1 : log10 of TGI value = 1.55

// COC(=O)CC(c1cn(S(=O)(=O)c2ccc(C)cc2)c2ccccc12)C1C[C@@H](C(=O)OC)N(C(=O)OC(C)(C)C)C1=O (some centres undefined) : log10 of TGI value = 1.02
